Values were extracted from ChEMBL document CHEMBL1154345.

This section presents compounds with their documented CC50 values.
- Experiment Notes: Cytotoxicity against human HuH7 cells assessed as GAPDH release
- Format: cell-based, Huh-7

CS(=O)(=O)Nc1ccc2c(c1)S(=O)(=O)N=C(C1=C(O)[C@@H]3C4CCC(CC4)[C@@H]3N(Cc3ccc(F)cc3)C1=O)N2    > 1000 nM
CS(=O)(=O)Nc1ccc2c(c1)S(=O)(=O)N=C(C1=C(O)C3CC=CCC3N(Cc3ccc(F)cc3)C1=O)N2 (racemic)    > 1000 nM

Query string: What measured CC50 goes with CS(=O)(=O)Nc1ccc2c(c1)S(=O)(=O)N=C(C1=C(O)[C@@H]3[C@@H]([C@H]4CC[C@@H]3O4)N(Cc3ccc(F)cc3)C1=O)N2 ?
Result string: > 1000 nM
